// provenance: patent US20250388666A1

Target under test: T1, CEACAM1 (Sino Biological) (human, UniProt P13688 35-428, limits assumed)
T1 construct: may be the same as CEACAM1-HIS; also called hCEACAM1; biotinylated soluble CEACAM1
T1 sequence: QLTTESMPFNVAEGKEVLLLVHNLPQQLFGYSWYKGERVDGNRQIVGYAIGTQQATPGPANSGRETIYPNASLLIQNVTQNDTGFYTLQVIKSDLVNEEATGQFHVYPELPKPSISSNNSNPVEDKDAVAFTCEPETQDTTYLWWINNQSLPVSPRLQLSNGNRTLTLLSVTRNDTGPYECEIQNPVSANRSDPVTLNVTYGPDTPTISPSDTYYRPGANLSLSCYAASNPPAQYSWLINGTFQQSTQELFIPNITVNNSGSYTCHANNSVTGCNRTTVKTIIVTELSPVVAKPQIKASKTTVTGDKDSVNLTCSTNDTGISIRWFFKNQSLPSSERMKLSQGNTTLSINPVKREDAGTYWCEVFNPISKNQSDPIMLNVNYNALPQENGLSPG
Method summary: SPR single-cycle
Parameter measured: pKd
// pKd here means minus log10 of the molar concentration (mol/L)

Some solved entries appear below for comparison.
Binder | pKd
He1/L4 #1 (antibody, IgG4, V domains shown, IgG4 S241P, kappa) VH: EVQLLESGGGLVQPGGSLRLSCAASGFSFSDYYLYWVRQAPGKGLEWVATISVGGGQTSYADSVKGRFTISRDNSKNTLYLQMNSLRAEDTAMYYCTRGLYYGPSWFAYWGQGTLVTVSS VL: DIVMTQSPDSLAVSLGERATINCKSSQSLLNSANQKNYLAWYQQKPGQPPKLLIYFASTRESGVPDRFSGSGSGTDFTLTISSLQAEDVAVYYCQSHFPYYYTFGGGTKVEIK | 6.37
Parent VH/L18 (antibody, IgG4, V domains shown, IgG4 S241P, kappa; also called VHp/L18; VH2 N56Q / 18) VH: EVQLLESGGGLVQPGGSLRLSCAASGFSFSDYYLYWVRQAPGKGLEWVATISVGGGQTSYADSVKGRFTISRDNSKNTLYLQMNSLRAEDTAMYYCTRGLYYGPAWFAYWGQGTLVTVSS VL: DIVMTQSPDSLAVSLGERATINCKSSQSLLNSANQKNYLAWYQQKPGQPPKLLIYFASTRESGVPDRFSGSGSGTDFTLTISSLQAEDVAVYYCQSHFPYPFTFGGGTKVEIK | 7.25

Please fill in: pKd reported for Parent VH/L4#2 (antibody, IgG4, V domains shown, IgG4 S241P, kappa; also called VHp/L4 #2; VH2 N56Q / 4#2) VH: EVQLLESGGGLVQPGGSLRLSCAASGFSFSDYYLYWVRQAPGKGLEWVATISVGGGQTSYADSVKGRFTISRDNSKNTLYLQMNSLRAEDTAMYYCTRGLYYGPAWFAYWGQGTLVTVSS VL: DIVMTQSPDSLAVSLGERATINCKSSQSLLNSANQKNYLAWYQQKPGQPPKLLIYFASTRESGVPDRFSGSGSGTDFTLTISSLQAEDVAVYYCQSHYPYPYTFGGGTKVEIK = 6.79
